Molecular target: UniProt Q9UDY8
Sequence (Q9UDY8 whole entry): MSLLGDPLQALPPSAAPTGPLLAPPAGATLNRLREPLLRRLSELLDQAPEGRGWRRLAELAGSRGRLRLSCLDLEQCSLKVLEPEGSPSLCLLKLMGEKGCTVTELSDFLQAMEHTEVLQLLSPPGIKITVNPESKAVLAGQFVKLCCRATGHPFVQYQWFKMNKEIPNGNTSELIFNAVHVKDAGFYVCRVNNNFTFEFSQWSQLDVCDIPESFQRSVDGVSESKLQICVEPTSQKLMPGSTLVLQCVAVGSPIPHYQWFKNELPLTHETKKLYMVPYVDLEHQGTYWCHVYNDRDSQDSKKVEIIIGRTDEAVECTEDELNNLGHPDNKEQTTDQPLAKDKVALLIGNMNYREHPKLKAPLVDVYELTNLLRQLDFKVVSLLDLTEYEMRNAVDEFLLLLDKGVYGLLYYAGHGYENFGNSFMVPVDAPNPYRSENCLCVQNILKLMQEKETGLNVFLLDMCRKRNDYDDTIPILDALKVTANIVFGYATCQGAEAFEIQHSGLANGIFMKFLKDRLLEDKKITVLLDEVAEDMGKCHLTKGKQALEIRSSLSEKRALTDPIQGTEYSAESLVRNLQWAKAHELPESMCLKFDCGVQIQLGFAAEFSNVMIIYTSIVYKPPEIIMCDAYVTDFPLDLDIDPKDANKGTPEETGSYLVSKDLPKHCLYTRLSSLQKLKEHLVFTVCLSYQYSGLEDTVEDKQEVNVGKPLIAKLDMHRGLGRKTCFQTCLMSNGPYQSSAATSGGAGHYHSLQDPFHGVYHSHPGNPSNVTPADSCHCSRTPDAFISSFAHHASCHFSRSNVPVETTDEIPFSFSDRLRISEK
Conditions: Cell (Glo), GloSensor reporter, PMA/IO activated Raji cells
Square brackets hold non-standard residues; d marks the D form. Peptide text beside a SMILES is read from it. * marks the point of attachment. Chg = N[C@H](C(=O)O)C1CCCCC1; NMeV = CN[C@H](C(=O)O)C(C)C; αMeP = C[C@@]1(C(=O)O)CCCN1; Cbz = O=C(OCc1ccccc1)*; CH2F = FC*
EXPERIMENTAL READOUT: pIC50
Hey, just a heads up that pIC50 is the negative log base 10 of the concentration in molar.

Known pIC50 results, listed for orientation:
MOLECULE	pIC50
CC(C)[C@H](NC(=O)c1ccc(Br)cc1)C(=O)N1CCCC[C@H]1C(=O)N[C@@H](CCCNC(=N)N)C(=O)CF	6.49
CC(C)[C@@H](C(=O)N1CCC[C@H]1C(=O)N[C@@H](CCCNC(=N)N)C(=O)CF)N(C)C(=O)OCc1ccccc1 [Compound 5] (Cbz-[NMeV]-Pro-Arg-CH2F)	5.52
CC(C)[C@H](NC(=O)OCc1ccccc1)C(=O)N1CCC[C@@]1(C)C(=O)N[C@@H](CCCNC(=N)N)C(=O)CF [Compound 43] (Cbz-Val-[αMeP]-Arg-CH2F)	6.06
CC(C)C[C@H](NC(=O)OCc1ccccc1)C(=O)N1CCC[C@H]1C(=O)N[C@@H](CCCNC(=N)N)C(=O)CF [Compound 31] (Cbz-Leu-Pro-Arg-CH2F)	5.47
N=C(N)NCCC[C@H](NC(=O)[C@H](CO)NC(=O)[C@@H](NC(=O)c1ccc(Br)cc1)C1CCCCC1)C(=O)CF	7.06
N=C(N)NCCC[C@H](NC(=O)[C@@H]1CCCN1C(=O)[C@@H](NC(=O)OCc1ccccc1)C1CCCCC1)C(=O)CF [Compound 34] (Cbz-[Chg]-Pro-Arg-CH2F)	6.82

Here is the next item to consider.
Using the record for CC(C)[C@H](NC(=O)OCc1ccccc1)C(=O)N1CCC[C@H]1C(=O)N[C@@H](CCCNC(=N)N)C(=O)CF [Compound 4, Z-VPR-fmk] (Cbz-Val-Pro-Arg-CH2F) , report its pIC50.
5.71
